Assay: activity coefficient (dimensionless); of the first substance listed, at infinite dilution; xn = mol fraction of the nth substance listed
Details: 298 K; Liquid; Chromatography; x1 = 0
// reported activity coefficient per item

Check out these entries, answers already filled in.
INSERT INTO assay_data (compound, reported_result) VALUES
  ('Ic1ccccc1 [iodobenzene] + OCCO', 42),
  ('c1ccccc1 [benzene] + OCCO', 32),
  ('c1ccc2ccccc2c1 [naphthalene] + OCCO', 238),
  ('Cc1ccccc1 [toluene] + OCCO', 93),
  ('Clc1ccccc1 [chlorobenzene] + OCCO', 40);

Note to self: activity coefficient recorded for Brc1ccccc1 [bromobenzene] + OCCO was 45

Record summary for Fc1ccccc1 [fluorobenzene] + OCCO : reported activity coefficient = 32

# credit: the NIST ThermoML archive (doi:10.1016/j.fluid.2013.06.028)
